Test system: HCI-016 (organoid from a triple-negative breast cancer xenograft)
Assay explanation: CTG-3D luminescence at 96 h relative to day-0 seeding control (ratio to day 0); higher = more growth / less cytotoxicity; PDxO 3D drug screen (set 2), 96 h, CTG-3D normalised to day-0 seeding control.
Condition: 12.5 pM; days in culture: 341

Compound	System	CTG-3D luminescence at 96 h
CCOc1ccn(-c2ccc(F)cc2)c(=O)c1C(=O)Nc1ccc(Oc2ccnc(N)c2Cl)c(F)c1	HCI-016	1.97
CC(=O)c1c(C)c2cnc(Nc3ccc(N4CCNCC4)cn3)nc2n(C2CCCC2)c1=O	HCI-016	2.28
CO[C@H]1C[C@@H]2CC[C@@H](C)[C@@](O)(O2)C(=O)C(=O)N2CCCC[C@H]2C(=O)O[C@H]([C@H](C)C[C@@H]2CC[C@@H](OCCO)[C@H](OC)C2)CC(=O)[C@H](C)/C=C(\C)[C@@H](O)[C@@H](OC)C(=O)[C@H](C)C[C@H](C)/C=C/C=C/C=C/1C	HCI-016	1.86
Nc1cc(C(F)(F)F)c(-c2cc(N3CCOCC3)nc(N3CCOCC3)n2)cn1	HCI-016	2.17
COc1cccc2c1C(=O)c1c(O)c3c(c(O)c1C2=O)C[C@@](O)(C(=O)CO)C[C@@H]3O[C@H]1C[C@H](N)[C@@H](O)[C@H](C)O1 [epirubicin]	HCI-016	2.05
CO[C@H]1C[C@@H]2CC[C@@H](C)[C@@](O)(O2)C(=O)C(=O)N2CCCC[C@H]2C(=O)O[C@H]([C@H](C)C[C@@H]2CC[C@@H](O)[C@H](OC)C2)CC(=O)[C@H](C)/C=C(\C)[C@@H](O)[C@@H](OC)C(=O)[C@H](C)C[C@H](C)/C=C/C=C/C=C/1C	HCI-016	1.45

----------
# key: entry, value: CTG-3D luminescence at 96 h
Test system: HCI-019 (organoid from a triple-negative breast cancer xenograft)
Assay explanation: CTG-3D luminescence at 96 h relative to day-0 seeding control (ratio to day 0); higher = more growth / less cytotoxicity; PDxO 3D drug screen, 96 h, CTG-3D normalised to day-0 seeding control.
Condition: 0.1 µM; days in culture: 131
Endpoint: CTG-3D luminescence at 96 h

Entry smiles	System	Reported measurement
O=C(/C=C/c1cccnc1)NCCCCC1CCN(C(=O)c2ccccc2)CC1	HCI-019	0.542
CC(=O)O[C@H]1C(=O)[C@@]2(C)[C@H]([C@H](OC(=O)c3ccccc3)[C@]3(O)C[C@H](OC(=O)[C@H](O)[C@@H](NC(=O)c4ccccc4)c4ccccc4)C(C)=C1C3(C)C)[C@]1(OC(C)=O)CO[C@@H]1C[C@@H]2O	HCI-019	0.609
CC(C)(C(=O)NCC(F)(F)C(F)(F)F)C(=O)N[C@@H]1C(=O)Nc2ccccc2-c2ccccc21	HCI-019	3.09
C[C@H](NC(=O)CCC(F)(F)F)C(=O)N[C@@H]1C(=O)N(CCO)c2ncccc2-c2ccccc21	HCI-019	2.86
C/C=C1\NC(=O)[C@H]2CSSCC/C=C/[C@H](CC(=O)N[C@H](C(C)C)C(=O)N2)OC(=O)[C@H](C(C)C)NC1=O	HCI-019	0.975
COc1cccc2c1C(=O)c1c(O)c3c(c(O)c1C2=O)C[C@@](O)(C(=O)CO)C[C@@H]3O[C@H]1C[C@H](N)[C@H](O)[C@H](C)O1	HCI-019	1.47

----------
Test system: HCI-016
Assay explanation: CTG-3D luminescence at 96 h relative to day-0 seeding control (ratio to day 0); higher = more growth / less cytotoxicity; PDxO 3D drug screen, 96 h, CTG-3D normalised to day-0 seeding control.
Condition: 10 µM; days in culture: 153
CTG-3D luminescence at 96 h listing for selected molecules.
Endpoint: CTG-3D luminescence at 96 h

> print(dat)
                                   molecule  reported.measurement
1  COc1cccc2c1C(=O)c1c(O)c3c(c(O)c1C2=O)C[C@@](O)(C(=O)CO)C[C@@H]3O[C@H]1C[C@H](N)[C@H](O)[C@H](C)O1 [doxorubicin]                0.0767
2  O=C(O)C1(C(=O)O)CCC1.[NH2-].[NH2-].[Pt+2] [carboplatin]                 0.866
3  CC(C)n1nc(-c2ccc3oc(N)nc3c2)c2c(N)ncnc21 [sapanisertib]                 0.411
4  Cc1cc(Nc2ncnc3ccc(NC4=NC(C)(C)CO4)cc23)ccc1Oc1ccn2ncnc2c1 [tucatinib]                  1.96
5  NC1(C(=O)N[C@@H](CCO)c2ccc(Cl)cc2)CCN(c2nc[nH]c3nccc2-3)CC1 [capivasertib]                  1.43
6  CN(Cc1cnc2nc(N)nc(N)c2n1)c1ccc(C(=O)N[C@@H](CCC(=O)O)C(=O)O)cc1 [methotrexate]                  2.08

----------
Each entry below carries its recorded CTG-3D luminescence at 96 h.
System: HCI-015 (organoid from a triple-negative breast cancer xenograft)
Assay explanation: CTG-3D luminescence at 96 h relative to day-0 seeding control (ratio to day 0); higher = more growth / less cytotoxicity; PDxO 3D drug screen, 96 h, CTG-3D normalised to day-0 seeding control.
Condition: 0.1 µM; days in culture: 218
Endpoint: CTG-3D luminescence at 96 h

Compound	Reported measurement
COc1cccc2c1C(=O)c1c(O)c3c(c(O)c1C2=O)C[C@@](O)(C(=O)CO)C[C@@H]3O[C@H]1C[C@H](N)[C@H](O)[C@H](C)O1 [doxorubicin]	0.575
CN(Cc1cnc2nc(N)nc(N)c2n1)c1ccc(C(=O)N[C@@H](CCC(=O)O)C(=O)O)cc1 [methotrexate]	1.69
CC(=O)O[C@H]1C(=O)[C@@]2(C)[C@H]([C@H](OC(=O)c3ccccc3)[C@]3(O)C[C@H](OC(=O)[C@H](O)[C@@H](NC(=O)c4ccccc4)c4ccccc4)C(C)=C1C3(C)C)[C@]1(OC(C)=O)CO[C@@H]1C[C@@H]2O [paclitaxel]	0.428
CNC(=O)c1cccc(-c2ccc3c(N4CCOC[C@@H]4C)nc(N4CCOC[C@@H]4C)nc3n2)c1 [vistusertib]	1.41
CS(=O)(=O)c1ccc(C(=O)Nc2ccc(Cl)c(-c3ccccn3)c2)c(Cl)c1 [vismodegib]	1.61
NC(=O)Nc1cc(-c2cccc(F)c2)sc1C(=O)N[C@H]1CCCNC1 [AZD7762]	0.692
CC1(C)CCC(c2ccc(Cl)cc2)=C(CN2CCN(c3ccc(C(=O)NS(=O)(=O)c4ccc(N[C@H](CCN5CCOCC5)CSc5ccccc5)c(S(=O)(=O)C(F)(F)F)c4)cc3)CC2)C1 [navitoclax]	1.59

----------
Tested on: HCI-002 (organoid from a triple-negative breast cancer xenograft)
Assay explanation: CTG-3D luminescence at 96 h relative to day-0 seeding control (ratio to day 0); higher = more growth / less cytotoxicity; PDxO 3D drug screen, 96 h, CTG-3D normalised to day-0 seeding control.
Condition: 10 µM; days in culture: 209
Endpoint: CTG-3D luminescence at 96 h

Compound	System	Reported measurement
CC1(C)CCC(c2ccc(Cl)cc2)=C(CN2CCN(c3ccc(C(=O)NS(=O)(=O)c4ccc(N[C@H](CCN5CCOCC5)CSc5ccccc5)c(S(=O)(=O)C(F)(F)F)c4)cc3)CC2)C1 [navitoclax]	HCI-002	1.18
CS(=O)(=O)c1ccc(C(=O)Nc2ccc(Cl)c(-c3ccccn3)c2)c(Cl)c1 [vismodegib]	HCI-002	2.31
CC[C@H](NC(=O)[C@H](C)NC)C(=O)N1C[C@@H](O)C[C@H]1Cc1c(-c2[nH]c3cc(F)ccc3c2C[C@@H]2C[C@H](O)CN2C(=O)[C@H](CC)NC(=O)[C@H](C)NC)[nH]c2cc(F)ccc12 [birinapant]	HCI-002	0.44
CN(Cc1cnc2nc(N)nc(N)c2n1)c1ccc(C(=O)N[C@@H](CCC(=O)O)C(=O)O)cc1 [methotrexate]	HCI-002	1.28
Cc1nc(-c2cn3c(n2)-c2ccc(-c4cnn(C(C)(C)C(N)=O)c4)cc2OCC3)n(C(C)C)n1 [taselisib]	HCI-002	0.726
CCN(c1cc(C#CCN2CCOCC2)cc(C(=O)NCc2c(C)cc(C)[nH]c2=O)c1C)[C@H]1CC[C@H](N(C)CCOC)CC1	HCI-002	2.64

----------
System: HCI-002
Assay explanation: CTG-3D luminescence at 96 h relative to day-0 seeding control (ratio to day 0); higher = more growth / less cytotoxicity; PDxO 3D drug screen, 96 h, CTG-3D normalised to day-0 seeding control.
Condition: 625 fM; days in culture: 209
Reported values of CTG-3D luminescence at 96 h for individual entries
Endpoint: CTG-3D luminescence at 96 h

> print(dat)
                               entry.smiles   system  reported.measurement
1  CC(C)n1nc(-c2ccc3oc(N)nc3c2)c2c(N)ncnc21  HCI-002                  2.18
2  CCN1CCN(Cc2ccc(Nc3ncc(F)c(-c4cc(F)c5nc(C)n(C(C)C)c5c4)n3)nc2)CC1  HCI-002                  2.36
3  NC1(C(=O)N[C@@H](CCO)c2ccc(Cl)cc2)CCN(c2nc[nH]c3nccc2-3)CC1  HCI-002                  2.39
4  CNC(=O)c1cccc(-c2ccc3c(N4CCOC[C@@H]4C)nc(N4CCOC[C@@H]4C)nc3n2)c1  HCI-002                  2.62
